- assayedSystem: T1, HLA-DR DRB4*0101 (human)
- T1 chain 1: not shown
- T1 chain 2: not shown
- assayExplanation: radiolabeled-peptide inhibition, purified HLA-DR
- conditionContext: remark: other sources report otherwise
testReadout: IC50

Consider the binder ITGYLYISAWPDSLP [9019.0050] and give its measured IC50.
270 nM

Can you look up the measured IC50 of CYGLGMEHLREVRAV [9019.0044] for me?
444 nM

Name the recorded IC50 for LQGLPREYVNARHCL [9019.0064] .
2550 nM

Reported IC50, binder KIPVAIKVLRENTSP [1622.03] : ____
7800 nM

Value lookup for IC50; key = AYVMAGVGSPYVSRL [9019.0077]
5060 nM
